System: SF-539 CNS
Experiment Summary: NCI-60 one-dose screen, 48 h
Measurement Conditions: 10 µM unless noted
About 83,000 compounds went through this panel and 20% of them were active in at least one assay; those are over-represented in the sample as a whole. Calls of active or inactive are those of the source. How the source made its calls: active means growth percent below 10; inactive means the rest.
Use one of these outcomes when replying: active, inactive

Examples from the recorded data:
Compound | Qualitative Label
COC12C=C/C(=C(/C(=O)OCc3ccccn3)C(=O)CCCCCCCCC3(OC)C=C/C(=C(/C(=O)OCc4ccccn4)C(=O)CCCCCCCC1)O3)O2 | active
C=C1CC[C@@H]2[C@](C)(COC(C)=O)[C@H](OC(C)=O)CC[C@@]2(C)[C@@H]1CC(Nc1ccc(S(=O)(=O)Nc2nccc(C)n2)cc1)C1=CCOC1=O (stereo partly drawn) | active
CN(Cc1ccccc1)c1nc(Cl)c(C2CC(c3ccc(Cl)cc3)=NN2c2cc(Cl)cc(Cl)c2)s1 (stereo not drawn) | inactive
CCOC(=O)CC1CSC(N/N=C(/C)c2cccc(C(F)(F)F)c2)=N1 (stereo not drawn) | inactive
COc1ccc(-c2csc(NC(=O)CSc3nc(C)cc(=O)[nH]3)n2)cc1 | inactive
COc1ccc(-c2ccc(-c3ccc(C(=N)N)nc3)s2)cc1 | active
CCN(CC)CCOc1ccc(/C(=C(\C)Cc2ccc(OC)cc2)c2ccc(O)cc2)cc1 | active

Incoming: Which outcome did this test record for the compound `CCCS(=O)(=O)Nc1cccc(Nc2ncnc3cc(NC(=O)CCl)ccc23)c1Cl` ?
Outgoing: active

---

Test system: CCRF-CEM leukemia
Experiment Summary: NCI-60 one-dose screen, 48 h (100 = growth as untreated, 0 = no growth, -100 = all killed)
Measurement Conditions: 10 µM unless noted
Protocol: Growth inhibition of the CCRF-CEM human tumor cell line is measured as a screen for anti-cancer activity. Cells are grown in 96 well plates and exposed to the test compound for 48 hours. Compounds are tested at a single concentration, which is 10^-5 M for most compounds. The reported endpoint is percent growth (GI% or GIPRCNT), where numbers from 0 - 100% represent growth inhibition, and numbers from -100% - 0 represent cell death. For example, a value of 40 represents 60% growth inhibition. […]
This is part of a sample that, as a whole, favours compounds with a hit. Of some 83,000 tested, about 20% had one in any assay.
Give growth for every item shown.
Give bare numbers, in %.

Recorded results for 5 compounds are shown here.
Compound | growth, %
CN(C)CCOc1ccc(/C(=C(/CCCCCCCCCC[P+](c2ccccc2)(c2ccccc2)c2ccccc2)c2ccccc2)c2ccccc2)cc1 | -56
CCCN1C(=O)N(CCC)C2C1NC(=S)N2/N=C/C=C/c1ccccc1OC (stereo not given) | 10.1
Cc1nc2ccccc2c(/C=C/c2ccc(Br)cc2)c1C(=O)/C=C/c1ccccc1 | 6.02
CCOc1ccc(-c2cc(C3(S(=O)(=O)c4ccc(C)cc4)CC=CC3)on2)cc1 | 76.6
Cc1ccc(C2(C)NC(=O)N(CC(=O)Nc3cccc(C)c3)C2=O)cc1 (stereo not given) | 112

Value sought for every listed compound: growth.
1. COc1ccc(/C=C2/CCc3cc4ccc(OC)cc4[o+]c32)c(O)c1
2. COc1cccc(C2C3=C(COC3=O)N(CCO)c3cc4c(cc32)OCCO4)c1 (stereo not given)
3. Cn1cc(-c2nc(-c3c[nH]c4ccncc34)cs2)c2cc(F)ccc21

Outgoing:
9.94
11.5
-41.6

Dear colleague, could you please provide growth for the compounds listed below?
1. N#C/C(=N\Nc1ccccc1)C(=O)Nc1cc(-c2ccccc2)nn1-c1ccccc1
2. COc1cccc(NC(=O)c2sc3nc(C)c(C(=O)c4ccccc4)cc3c2N)c1
3. Cc1ccc(C23CCC(=O)N2CCc2cncn23)cc1 (stereo not given)
4. CN(C)CCCN(CCC1CCCCC1)CCC1CCCCC1

Outgoing:
1: 26.6; 2: 99; 3: 95.1; 4: 21.4

Dear colleague, could you please provide growth for the compounds listed below?
1. O=C(N/N=C/c1ccccc1Cl)c1ccccc1Nc1ccnc(C(F)(F)F)c1
2. CCOC(=O)c1cc(C(=O)c2cc(OC)cc(OC)c2)n2ncccc12
3. CCOc1cc(\C=N/N=C(N)/C(N)=N\N=C/c2ccc(O)c(OCC)c2)ccc1O
4. CN1CCN(Cc2ccc(NC(=O)c3cncc(C#Cc4c(N)ncc5c(F)cccc45)c3)cc2C(F)(F)F)CC1
5. O=c1c(Cc2ccc(F)cc2)cc(-c2ccccc2)nn1C/C(=N/O)c1ccccc1
6. CCCn1cnc2c(c1=N)C(c1ccc(Cl)cc1)c1sc3c(F)cccc3c1O2 (stereo not given)
7. O=C1/C(=C/c2ccccc2)COc2ccc(O)cc21
8. CCOC(=O)C#Cc1c(CC(=O)OCC)nnn1[C@H]1O[C@@H](CO)[C@@H]2OC(C)(C)O[C@@H]21

Outgoing:
11.2
24
49.7
-39.8
34.6
64.4
21.5
11.7
